Value source: patent US20190270815A1

target: human PD-1 expressed on cells (human, UniProt Q15116 25-288); assay: FACS blocking of PD-L1 binding
Sequence (Q15116 25-288): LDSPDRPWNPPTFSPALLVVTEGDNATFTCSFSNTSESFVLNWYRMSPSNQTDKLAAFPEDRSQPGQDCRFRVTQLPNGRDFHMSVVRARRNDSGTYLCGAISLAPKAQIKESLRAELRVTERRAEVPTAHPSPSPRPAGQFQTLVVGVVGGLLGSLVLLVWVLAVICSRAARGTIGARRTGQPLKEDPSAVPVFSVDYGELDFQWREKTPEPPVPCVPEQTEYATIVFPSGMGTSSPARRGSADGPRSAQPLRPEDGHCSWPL
Recorded Endpoint: IC50 (nM)

INSERT INTO measurements (binder, recorded_endpoint, observed) VALUES
  ('1.7.3 hAb (antibody, V domains shown) VH: QLQLQESGPGLVKPSETLTLTCTVSGDSISSTTYYWVWIRQPPGKGLEWIGSISYSGNTYYNPSLKSRVTISVDTSKNHFSLKLSSVAATDTALYYCARHLGYNGRYLPFDYWGQGTLVTVSS VL: QSALTQPASVSGSPGQSITISCTGTSSDVGFYNYVSWYQQHPGKAPELMIYDVTNRPSGVSDRFSGSKSGNTASLTISGLQAEDEADYYCSSYTSISTWVFGGGTKLTVL', 'IC50', 3.51),
  ('1.103.11 hAb (antibody, V domains shown) VH: QLQLQESGPGLVKPSETLTLTCTVSADSISSTTYYWVWIRQPPGKGLEWIGSISYSGSTYYNPSLKSRVTVSVDTSKNQFSLKLNSVAATDTALYYCARHLGYNGRYLPFDYWGQGTLVTVSS VL: QSALTQPASVSGSPGQSITISCTGTSSDVGFYNYVSWYQQHPGKAPELMIYDVSNRPSGVSDRFSGSKSGNTASLTISGLQAEDEADYYCSSYTNISTWVFGGGTKLTVL', 'IC50', 4.44),
  ('1.153.7 hAb (antibody, V domains shown) VH: EVQLLESGGGLVQPGGSLRLSCAASGFTFSSHAMSWVRQAPGKGLEWVSTITGGGGSIYYADSVKGRFTISRDNSKNTLYLQMNSLRAEDTAVYYCAKNRAGEGYFDYWGQGTLVTVSS VL: SYELTQPLSVSVALGQTARITCGGDNIGNKDVHWYQQKPGQAPVLVIYRDSNRPSGIPEGFSGSNSGNTATLTISRAQAGDEADYYCQVWDSIWVFGGGTKLTVL', 'IC50', 4.49),
  ('1.49.9 hAb (antibody, V domains shown) VH: QLQLQESGPGLVKPSETLSLTCTVSGGSISSSTYYWGWIRQPPGKGLEWIGSISYSGSTYYNPSLKSRVTISVDTSKNQFSLKLSSVTDADTAVYYCARHLGYNGRYLPFDYWGQGTLVTVSS VL: QSALTQPASVSGSPGQSITISCTGTSSDVGFYNYVSWYQQHPGKAPEVMIYDVSNRPSGVSDRFSGSKSGNTASLTISGLQAEDEADYYCSSYTSISTWVFGGGTKLTVL', 'IC50', 4.21),
  ('1.139.15 hAb (antibody, V domains shown) VH: QLQLQESGPGLVKPSETLSLTCTVSGGSISSTTYYWGWIRQPPGKGLEWIGSISYSGTTYYNPSLKSRVTIPVDTSKNQISLKLSSVTAADTSLYYCARHLGYNSNWYPFDYWGQGTLVTVSS VL: QSALTQPPSVSGSPGQSVTISCTGTSSDVGSYNRVSWYQQPPGTAPEVIIYEVSNRPSGVPDRFSGSKSGNTASLTISGLQAEDEADYYCSSYTSSSTWVFGGGTKLTVL', 'IC50', 3.1);
